system: bermudagrass (Cynodon dactylon); experiment: Test B preemergence, bermudagrass; format: in vivo; settings: 31 g ai/ha, scale 0 to 100
This listing pairs compounds with measured Plant response rating, Bermudagrass.
Just the number.

Some entries whose results are on file:
> print(dat)
                            compound.smiles                     study.system  measured.value
1  CC1(C)CC(S(=O)(=O)Cc2c(C(F)(F)F)nc3n(c2=O)CCCC3)=NO1  bermudagrass (Cynodon dactylon)             100
2  CC1(C)CC(S(=O)(=O)Cc2c(C(F)(F)F)nc3n(c2=O)CCC3)=NO1  bermudagrass (Cynodon dactylon)             100

Now look at this entry.
Query block: Consider the compound CC1(C)CC(S(=O)(=O)Cc2c(C(F)(F)C(F)(F)F)nc3n(c2=O)CCCC3)=NO1 and give its recorded Plant response rating, Bermudagrass.
Result block: 100

Hello, the source for this data is patent US20100099561A1, in case you need it.
